assay: Clearance in Beagle dog hepatocytes assessed as per gram tissue at 0.5 uM measured up to 1 hr by LC-MS/MS analysis; type: ADME, cell-based, Canis lupus familiaris, Hepatocyte
measurementLabel: CLH

1) CNC(=O)c1cc(C(=O)NC2CC2)cc2c1O[C@H](CF)[C@H]2c1ccccc1    < 1.26 mL/min/g

* * *

test: Chromatographic hydrophobicity index, log D of the compound in pH 7.4 ammonium acetate buffer/acetonitrile gradient by HPLC analysis; type: physicochemical
measurementLabel: CHI

1. CNC(=O)c1cc(C(N)=O)cc2c1O[C@H](CF)[C@H]2c1ccccc1    2.89
2. CNC(=O)c1cc(C(=O)NCCOC)cn(Cc2ccccc2)c1=O    2.74
3. CNC(=O)c1cc(C(=O)NC2CC2)cc2c1O[C@H](CF)[C@H]2c1ccccc1    3.94
4. CNC(=O)c1cc(C(=O)NCCO)cn(Cc2ccccc2)c1=O    1.9
